Source of measurements: patent US5229410A

Molecular target: central 5-HT1D binding sites (Bos taurus)
Construct: Bovine brains were obtained from Pel-Freeze Biologicals, and the caudate nuclei were dissected out; tissue Pel-Freeze Biologicals; host or cells: bovine caudate nuclei (washed membranes)
Sequence (F1MGM3 1-403): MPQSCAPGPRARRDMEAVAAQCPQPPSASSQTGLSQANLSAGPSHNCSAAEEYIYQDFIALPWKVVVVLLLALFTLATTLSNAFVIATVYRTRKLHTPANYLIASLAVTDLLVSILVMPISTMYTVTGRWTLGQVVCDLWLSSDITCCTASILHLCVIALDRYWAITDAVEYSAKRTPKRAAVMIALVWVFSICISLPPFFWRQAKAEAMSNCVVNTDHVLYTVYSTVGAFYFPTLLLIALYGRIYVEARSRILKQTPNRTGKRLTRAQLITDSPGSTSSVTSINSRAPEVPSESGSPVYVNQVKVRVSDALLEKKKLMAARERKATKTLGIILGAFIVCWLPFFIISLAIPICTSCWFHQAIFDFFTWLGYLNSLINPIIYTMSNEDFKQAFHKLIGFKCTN
Experiment: 5-HT1D binding ([3H]5-HT displacement, bovine caudate nuclei membranes)
MEASURE NAME: IC50
State the value with its unit after it.

IC50 of CCCN(CCC)[C@H]1Cc2c(C(C)=O)ccc3c2[C@@H](CN3)C1 (relative stereo) [Example 3] on central 5-HT1D binding sites (Bos taurus)?
7.47 nM

* * *

Entries and their measured IC50 follow.
Biological target: central 5-HT1D binding sites (Bos taurus)
Construct: Bovine brains were obtained from Pel-Freeze Biologicals, and the caudate nuclei were dissected out; tissue Pel-Freeze Biologicals; host or cells: bovine caudate nuclei (washed membranes)
Assay: 5-HT1D binding ([3H]5-HT displacement, bovine caudate nuclei membranes)
Details: [3H]5-HT 1.7-1.9 nM; bovine caudate; 8-OH-DPTA and mesulergine 100 nM as masks; pH 7.4; 37° C., 10 min; read-out: 5HT1D IC50 (concentration required to inhibit 50% of the binding)
I only need the number, in nM, no unit after it.

Guide cases for IC50, answers given:
# STRUCTURE NOTATION, RESULT UNIT, IC50
measured = [
    ("CCCN(CCC)[C@@H]1Cc2c(C(C)=O)ccc3c2[C@@H](CN3)C1", "nM", 129),
    ("CCCN(CCC)[C@H]1Cc2c(C(C)=O)ccc3c2[C@H](CN3)C1", "nM", 236),
    ("CCCN(CCC)[C@H]1Cc2c(C(=O)C(C)C)ccc3c2[C@@H](CN3)C1", "nM", 1.24),
]

// switching to the query compound
Form field: reported IC50 of CCCN(CCC)[C@@H]1Cc2c(C(=O)CC)ccc3c2[C@H](CN3)C1
9000

* * *

Entries and their measured Brain serotonin follow.
Test system: Brain 5-hydroxyindoles
Test: brain 5-hydroxyindoles in vivo after subcutaneous injection
Set-up: species or system male albino rats
Conditions: 0.03 mg/Kg s.c., 1 hour; * = P<0.05 vs control
I only need the number, in n moles/g, no unit after it.

# COMPOUND, SUBJECT OF TEST, RESULT UNIT, RECORDED VALUE
data = [
    ("CCCN(CCC)[C@@H]1Cc2c(C(C)=O)ccc3c2[C@H](CN3)C1", "Brain 5-hydroxyindoles", "n moles/g", 2.57),
    ("CCCN(CCC)C1Cc2c(C(=O)C(C)C)ccc3c2C(CN3)C1 (single isomer, unassigned; (-))", "Brain 5-hydroxyindoles", "n moles/g", 1.90),
    ("CCCN(CCC)[C@H]1Cc2c(C(=O)C(C)C)ccc3c2[C@@H](CN3)C1", "Brain 5-hydroxyindoles", "n moles/g", 2.26),
]

// switching to the query compound
Brain serotonin of CCCN(CCC)[C@H]1Cc2c(C(C)=O)ccc3c2[C@@H](CN3)C1 on Brain 5-hydroxyindoles?
2.99
